Would you kindly list kinase still bound, per cent of control for each of these compounds?
# Tested On: CAMK2G (human) (UniProt Q13555)
# Sequence (Q13555 whole entry, looked up): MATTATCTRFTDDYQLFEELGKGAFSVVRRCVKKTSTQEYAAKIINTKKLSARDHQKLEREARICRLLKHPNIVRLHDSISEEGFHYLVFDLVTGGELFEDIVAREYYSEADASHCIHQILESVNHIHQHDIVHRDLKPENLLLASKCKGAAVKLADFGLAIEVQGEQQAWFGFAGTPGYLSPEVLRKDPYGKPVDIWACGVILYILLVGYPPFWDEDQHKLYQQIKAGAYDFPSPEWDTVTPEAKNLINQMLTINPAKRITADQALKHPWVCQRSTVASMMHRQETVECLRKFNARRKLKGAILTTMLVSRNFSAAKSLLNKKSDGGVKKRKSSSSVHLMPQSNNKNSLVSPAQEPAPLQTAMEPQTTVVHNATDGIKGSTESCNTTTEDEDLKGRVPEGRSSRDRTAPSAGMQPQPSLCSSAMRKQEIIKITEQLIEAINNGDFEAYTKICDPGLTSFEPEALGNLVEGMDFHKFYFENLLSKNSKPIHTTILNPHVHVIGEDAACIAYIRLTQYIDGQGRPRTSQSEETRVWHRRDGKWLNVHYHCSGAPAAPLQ
# Method Summary: KINOMEscan competition binding
# Cond: compound 10.0 µM
Give bare numbers, in %.

Illustrative cases are given below, each with its answer.
| Record Smiles | Tested On | Observation Type | Reported Value |
| --- | --- | --- | --- |
| NC(=O)Nc1cc(-c2cccc(F)c2)sc1C(=O)N[C@@H]1CCCNC1 | CAMK2G (human) (UniProt Q13555) | kinase still bound, per cent of control | 24 |
| COc1cc2ncnc(-n3nc(-c4ccccn4)nc3N)c2cc1OC | CAMK2G (human) (UniProt Q13555) | kinase still bound, per cent of control | 56 |
| C=CC(=O)Nc1ccc(CN(C(=O)Nc2c(Cl)c(OC)cc(OC)c2Cl)c2cc(Nc3ccc(N4CCN(C)CC4)cc3)ncn2)cc1 | CAMK2G (human) (UniProt Q13555) | kinase still bound, per cent of control | 100 |
| CCN1CCN(C(=O)Cc2ccc(Nc3ncc(F)c(Nc4ccc(C(=O)Nc5ccccc5Cl)cc4)n3)cc2)CC1 | CAMK2G (human) (UniProt Q13555) | kinase still bound, per cent of control | 55 |
| CCN(CC)CCCCNc1ncc2c(n1)N(C)C(=O)N(c1c(Cl)c(OC)cc(OC)c1Cl)C2 | CAMK2G (human) (UniProt Q13555) | kinase still bound, per cent of control | 100 |

Dear colleague, could you please provide kinase still bound, per cent of control for the compounds listed below?
1. CCN(CC)CCCCNc1ncc2cc(-c3cc(OC)cc(OC)c3)c(NC(=O)NC(C)(C)C)nc2n1
2. O=C(Nc1cccc(Nc2ncc(Br)c(NCCc3cnc[nH]3)n2)c1)N1CCCC1
3. O=c1cc(N2CCOCC2)oc2c(-c3cccc4c3sc3ccccc34)cccc12
4. N#CCNC(=O)c1ccc(-c2ccnc(Nc3ccc(N4CCOCC4)cc3)n2)cc1

A.
1. 100
2. 52
3. 86
4. 36
